# System: Candida albicans
# assay.summary: Antifungal activity against resistant Candida albicans ATCC 64124
# Format: functional
reported.property: MIC

The following molecules have reported results that may help.
Looking up CCC(C)n1ncn(-c2ccc(N3CCN(c4ccc(OCC5COC(Cn6cncn6)(c6ccc(Cl)cc6Cl)O5)cc4)CC3)cc2)c1=O (centres undefined) , I see its MIC listed as > 64 µg/mL

Looking up CCCCCCCCS(=O)(=O)OC[C@H]1O[C@H](O[C@@H]2[C@@H](O)[C@H](O[C@H]3O[C@H](CN)[C@@H](O)[C@H](O)[C@H]3O)[C@@H](N)C[C@H]2N)[C@H](O)[C@@H](N)[C@@H]1O , I see its MIC listed as 31.3 µg/mL

Looking up OC(Cn1cncn1)(Cn1cncn1)c1ccc(F)cc1F , I see its MIC listed as > 200 µg/mL

New cases:
Looking up NC[C@H]1O[C@H](O[C@H]2[C@H](O)[C@@H](O[C@H]3O[C@H](CO)[C@@H](O)[C@H](N)[C@H]3O)[C@H](N)C[C@@H]2N)[C@H](O)[C@@H](O)[C@@H]1O , I see its MIC listed as > 500 µg/mL
